The following compounds are listed with their measured logKb exper. values.
# ASSAY_OVERVIEW: Unbound fraction in brain (fu,brain), brain homogenate method
# CONDITION_LABEL: Kb from literature fu,brain
REPORTED_METRIC: logKb exper.

1. CC(=O)Nc1ccc(O)cc1    0.692
2. CN(C)C(=N)N=C(N)N    1.270
3. CN(C)C(=O)Oc1cccc([N+](C)(C)C)c1    1.270
4. CNC(=C[N+](=O)[O-])NCCSCc1ccc(CN(C)C)o1    1.317
5. CCn1cc(C(=O)O)c(=O)c2cc(F)c(N3CCNCC3)cc21    0.139
6. O=C(O)c1ccccc1O    0.230
7. CCCC(C)(COC(N)=O)COC(N)=O [Meprobamate]    0.245

These measurements were taken from paper PMC9227077.
